Provenance of the data: the RNAGym collection of RNA variant scans (doi:10.1126/science.aae0568)

B1: tRNA (parent)
chain: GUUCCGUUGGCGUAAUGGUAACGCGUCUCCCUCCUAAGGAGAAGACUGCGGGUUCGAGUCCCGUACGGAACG

# Variants of: B1
# procedureText: yeast fitness relative to wild type (ratio to wild type); higher = fitter; tRNA-Arg(CCU), competitive growth, 37 C, YPD
Fewer inactive variants are shown than the library holds.
I'd be grateful if you could share measured yeast fitness for these entries.

Q. Quick one: give measured yeast fitness for G6A C29U C31U C33G U35C
A. ≤ 0.5

Q. Supply yeast fitness value. Item: A21G C29U
A. 0.944

Q. Retrieve yeast fitness measured for U3C C11G A42C C49U and print it.
A. ≤ 0.5

Q. Annotate the variant C4U A15C C30G G56A A69C A70G with its measured yeast fitness.
A. ≤ 0.5

Q. In one line, give reported yeast fitness of the entry U2G G12A C55U C61A .
A. ≤ 0.5

Q. Read the entry U2A U28G G67A and write its reported yeast fitness.
A. ≤ 0.5

Q. State its yeast fitness: C27U C61U
A. 1.01

Q. Give reported yeast fitness value for A14C C55A A65U
A. ≤ 0.5

Q. Quote yeast fitness reported for U19C A69G please.
A. 0.788

Q. Identify yeast fitness associated with the variant U53A G58A G68U
A. ≤ 0.5

Q. // Input: G18C C24G C46A G56C G58A . Output its yeast fitness only.
A. ≤ 0.5

Q. Return value of yeast fitness for input G25A C30G , no commentary.
A. 0.636

Q. Give the reported yeast fitness for this variant. U19C G25A
A. 0.969

Q. Give the measured yeast fitness for C24G U59A
A. 0.552

Q. Return yeast fitness (reported value) for this variant: C5U U19C C24A U28A
A. ≤ 0.5

Q. // Input: G51A A69C . Output its yeast fitness only.
A. 0.979

Q. Look up yeast fitness of U2G C5A C55U C61A and report it.
A. ≤ 0.5
